- Tested on: Sarcoma 180 mouse solid tumor
- Assay Notes: Antitumor activity against Sarcoma 180 mouse solid tumor
- Type: in vivo, mouse (ddY)
- Experimental Parameters: Sarcoma-180, iv, 168 h, 8.0 mg/kg i.v. once, 24 hours after transplant, tumor volume on day 7, read-out: T/C (tumor volume ratio treated/control)

Compound	response vs control in vivo at 8 mg/kg / %
C/C1=C\C(O)C(=O)/C=C/C=C\c2csc(n2)C(C)N2C(=O)CC(C(C)(O)C(=O)SCc3oc(=O)oc3COC3C[C@H](O[Si](C)(C)C(C)(C)C)[C@@H](O[Si](C)(C)C(C)(C)C)[C@H](C)O3)(CC1)[S+]2[O-] (stereo partly drawn)	45
C=C(CSC(=O)C(C)(O)C12CC/C(C)=C/C(OC3CCCCO3)C(=O)/C=C/C=C\c3csc(n3)C(C)N(C(=O)C1)[S+]2[O-])C(=O)OC (stereo not drawn)	24
COCOCc1oc(=O)oc1CSC(=O)C(C)(O)C12CC/C(C)=C/C(O)C(=O)/C=C/C=C\c3csc(n3)C(C)N(C(=O)C1)[S+]2[O-] (stereo not drawn)	36

* * *

- System: HeLa S3 cells
- Assay Notes: HeLa S3 Cell Growth Inhibition Test
- Type: cell-based
- Experimental Parameters: Homo sapiens, HeLa S3, 72 h, HeLa S3; 72 hours incubation; Neutral Red; read-out: IC50, HeLa S3 cell growth inhibition
- Procedure: In each well of a 96-well microtiter plate was placed 0.1 mL of HeLa S3 cells having a concentration of 8×10^3 cells/mL and prepared in an MEM culture medium containing 10% fetal bovine serum and 2 mM glutamine. After the cells were incubated overnight at 37° C. in a carbon dioxide incubator, a test compound suitably diluted with a medium was added to the wells in an amount of 0.05 mL for each well. […] The absorbance at 550 nm of each extract was measured with a microplate reader. […]
pIC50: −log10 of the molar value.

Compound	pIC50
COC1(OC2/C=C(\C)CCC3(C(C)(O)C(=O)SCC4=C(C)OC(C)(C)OC4=O)CC(=O)N(C(C)c4nc(cs4)/C=C\C=C\C2=O)[S+]3[O-])CCOCC1 (stereo not drawn) [Compound 122]	5.74
COCCOCCOCCOCC(=O)OCc1oc(=O)oc1CSC(=O)C(C)(O)C12CC/C(C)=C/C(OC3CCCCO3)C(=O)/C=C/C=C\c3csc(n3)C(C)N(C(=O)C1)[S+]2[O-] (stereo not drawn) [Compound 104]	7.70
